Where do the numbers come from? From patent US20200040059A1.

tested system: human ICOS as used for the 'ICOS OD' read-out of Table 14 (human)
Sequence (Q9Y6W8 whole entry): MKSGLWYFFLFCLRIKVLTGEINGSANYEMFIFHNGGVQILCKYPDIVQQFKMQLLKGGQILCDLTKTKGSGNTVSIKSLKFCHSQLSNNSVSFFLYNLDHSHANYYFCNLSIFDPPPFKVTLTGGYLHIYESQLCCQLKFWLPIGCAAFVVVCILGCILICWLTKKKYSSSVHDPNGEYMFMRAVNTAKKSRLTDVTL
measurement notes: binding read as OD; format not described
metric name: ICOS OD parental ratio

Problem: Provide measured ICOS OD parental ratio value, entry: ICOSL variant N52D ECD-Fc fusion (Fc fusion, not shown: no entry of the listing is held) DTQEKEVRAMVGSDVELSCACPEGSRFDLNDVYVYWQTSESKTVVTYHIPQDSSLENVDSRYRNRALMSPAGMLRGDFSLRLFNVTPQDEQKFHCLVLSQSLGFQEVLSVEVTLHVAANFSVPVVSAPHSPSQDELTFTCTSINGYPRPNVYWINKTDNSLLDQALQNDTVFLNMRGLYDVVSVLRIARTPSVNIGCCIENVLLQQNLTVGSQTGNDIGERDKITENPVSTGEKNAAT
Solution: 1.85 ratio to WT ICOSL ECD-Fc
